test system: SN12C renal; assay: NCI-60 one-dose screen, 48 h (100 = growth as untreated, 0 = no growth, -100 = all killed); conditions: 10 µM unless noted
This is part of a sample that, as a whole, favours compounds with a hit. Of some 83,000 tested, about 20% had one in any assay. Activity calls are given as the source filed them. The calls were made as follows: active = growth percent below 10; inactive = the rest.
For each entry below, report its growth value.

# count of solved cases: 3
CCCCCCCCCC[C@@H](C)[C@@H]1CC(=O)N[C@H]([C@@H](C)O)C(=O)N[C@@H](C)C(=O)N[C@H](C)C(=O)N[C@@H](CCC(N)=O)C(=O)N[C@H](Cc2ccc(O)cc2)C(=O)N[C@@H](C(C)CC)C(=O)O1 (some centres undefined)    66.5% (inactive)
O=C(CCCCCCN1CC(=O)N2[C@@H](c3ccc(Cl)c(F)c3)c3[nH]c4ccccc4c3C[C@H]2C1=O)NO    83.8% (inactive)
N#C/C(=C\c1ccc(N2CCCCC2)cc1)C(=O)Nc1sc2c(c1C#N)CCC2    88.9% (inactive)

Record `COc1ccc(NC(=O)[C@H](C)N)cc1C(=O)Nc1cccc(-c2cc(=O)c3c(OC)c(OC)c(OC)cc3o2)c1` . Reported growth: 55.4% (inactive)

* * *

test system: MCF7 breast; assay: NCI-60 one-dose screen, 48 h (100 = growth as untreated, 0 = no growth, -100 = all killed); conditions: 10 µM unless noted
The panel holds about 83,000 compounds, 20% with a hit somewhere; the sample as a whole holds those more often.
MEASURED ATTRIBUTE: growth (%)
Numbers only, in %.

Example cases with answers are listed next.
CS(=O)c1nccc(-c2c(-c3ccc(F)c(OCc4ccccc4)c3)nc3sccn23)n1 (centres undefined)    -44.7
C=C1C(=O)O[C@@H]2C[C@@H](C)[C@H](OC)CC(=O)[C@](C)(OC(C)=O)C[C@H](OC(=O)/C(C)=C\C)[C@@H]12    56.5
CCOC(=O)c1c(Nc2ccccc2)nn2c(-c3ccc(OC)c(OC)c3)ccnc12    55
O=C(CN1CCN(c2cc(=O)n(-c3ccccc3)c3ccccc23)CC1)Nc1ccc([N+](=O)[O-])cc1    88.2
CN(c1ccc(Cl)cc1)S(=O)(=O)c1ccc(-c2cnc(C3CC3)o2)cc1    15
C/C(=C(/c1ccc(O)cc1)c1ccc(OCCN2CCCCCC2)cc1)c1ccccc1    10.2
CC(=O)c1sc(Nc2cccc(Nc3nc(C)c(C)s3)c2)nc1C    61.7
Nc1nc(-c2cccc([N+](=O)[O-])c2)c(N=Nc2ccccc2Cl)s1    66.6

Batch of 4 compounds: report growth for each.
1. C=CCn1c(SCC(=O)Nc2cccc(C(=O)/C=C/c3cc(OC)c(OC)c(OC)c3)c2)nc2ccccc2c1=O
2. C#C[C@]1(O)CC[C@H]2[C@@H]3CC=C4c5sc(Nc6cccc(Cl)n6)nc5CC[C@]4(C)[C@H]3CC[C@@]21C
3. COC[C@@]1(C)CC[C@]2(C)CC[C@]3(C)C(=CC[C@@H]4[C@@]5(C)CCCNC(C)(C)[C@@H]5CC[C@]43C)C2C1 (some centres undefined)
4. CC(C)SC1=NC(=C(C(=N1)NC2=ClC=CC=C2)C#N)C3=CC=CC=C3

1: 18.2; 2: -70.4; 3: 23.9; 4: 39.9

Dear colleague, could you please provide growth for the compounds listed below?
1. CS(=O)(=O)c1nccc(-c2c(-c3ccc(F)c(OCCc4ccc(F)cc4)c3)nc3sccn23)n1
2. COc1ccc(CCN2C(=O)CSC2=S)cc1OC
3. COc1ccc(-c2nc3cc(Cl)c(Cl)cc3n2CC(=O)N=Nc2c(O)[nH]c3ccccc23)cc1
4. O=C(/C=C/c1cccc(O)c1)c1ccc(O)cc1
5. C=CCn1c(SCC(=O)Nc2cccc(C(=O)/C=C/c3ccc(Cl)cc3)c2)nc2ccccc2c1=O
6. C=CCn1c(SCC(=O)c2ccc(OC)cc2)nnc1-c1ccc(OC)cc1
7. COc1ccc(Cn2cc3c(c2-c2cc(OC)c(OC)c(OC)c2)CCCc2cnoc2-3)cc1N

-61
29.3
45.7
37.3
28.3
96
15.2

* * *

test system: HOP-92 NSCLC; experiment: NCI-60 one-dose screen, 48 h (100 = growth as untreated, 0 = no growth, -100 = all killed); details: 10 µM unless noted
Compounds without any hit were thinned out: in the full panel of roughly 83,000, 20% have a hit.
Kindly return y if reported growth is no lower than 70%; return n if it is lower.

Some entries whose results are on file:
CCN1C/C(=N\S(=O)(=O)c2ccccc2)N(CC)C1=S    y
CC(C)(C)n1nnnc1C(Nc1nccs1)c1cc2cccc3ccc4cccc1c4c32 (stereo not given)    y
COc1cc([C@H]2OC[C@H]3[C@@H]2CO[C@@H]3c2ccc(O)c(OC)c2)ccc1O    y
C/C(=C(/c1ccc(O)cc1)c1ccc(OCCN2CCCCCC2)cc1)c1ccccc1    n
COc1ccc(/C=N/Nc2nc(Nc3ccccc3)nc(Nc3ccc(S(N)(=O)=O)cc3)n2)cc1    y

Check the entry `CC1=CC(=O)CC(C)(C)[C@@]1(O)/C=C/C(C)=C\C(=O)O` : does growth equal or exceed 70%? n

Evaluate `Cc1ccc(Cc2cnc(NC(=O)/C(C#N)=C/c3ccc(-c4ccc(Cl)cc4)o3)s2)cc1` : growth at minimum 70%? n

growth >= 70% for `O=C(c1ccc(O)cc1)[C@@H]1[C@@H]2CCCN2[C@@]2(C(=O)N(C(=O)c3ccc(F)cc3)c3ccccc32)[C@H]1c1ccc(F)cc1` ? n

// inclusive: growth at least 70%? input: `COc1ccc(OC)c([C@H]2c3[nH]c4ccccc4c3C[C@H]3C(=O)N(CCCCCCC(=O)NO)CC(=O)N23)c1` y

* * *

tested on: UACC-62 melanoma; experiment: NCI-60 one-dose screen, 48 h; details: 10 µM unless noted
The panel holds about 83,000 compounds, 20% with a hit somewhere; the sample as a whole holds those more often. Calls of active or inactive are those of the source. How the source made its calls: active means growth percent below 10; inactive means the rest.
Select the matching outcome among yes (1) = active, no (0) = inactive

Example cases with answers are listed next.
COc1ccc(C2C(C#N)=C(N)Oc3c2sc2ccc(C)cc32)cc1 (configuration not stated)    no (0)
O=C(Nc1cc(Cl)cc(Cl)c1)Nc1ccc2oc(=O)ccc2c1    yes (1)
CN1CCN(c2nc(-c3csc(-c4ccncc4)n3)cc3ccccc23)CC1    no (0)

Given `COc1ccc(-c2nc(SCCC(C)C)nc(N/N=C\c3ccc(O)cc3)c2C#N)cc1` , state the outcome it received in this test. no (0)

Per the assay record, what outcome was assigned to CC(C)(C)CC(C)(C)n1nnnc1C(Nc1ccccc1)c1cc2cccc3ccc4cccc1c4c32 (configuration not stated) ? no (0)

Which outcome was entered for the compound `COc1ccc2c(c1)c(-c1nnc(N)nc1-c1cn(C)c3ccccc13)cn2C` in this test? no (0)

Called result for `O=C(Nc1cc(F)cc2cccnc12)c1cnc(N2CCOCC2)cn1` no (0)

Give the logged outcome of this assay for the following compound: `Nc1nc(-c2cccc([N+](=O)[O-])c2)c(N=Nc2ccccc2[N+](=O)[O-])s1` no (0)

Which outcome was entered for the compound `CN1CCN(c2nc(-c3cnc4ccccc4n3)cc3ccccc23)CC1` in this test? yes (1)

How was `CCNC(=O)Oc1ccc(/C(=C(/C)c2ccc(Cl)cc2)c2ccc(OCCN(C)C)cc2)cc1` classified in this test? no (0)

Which outcome was entered for the compound `C=C(C)[C@@H]1CC[C@]2(C(=O)NCCCN(CCC#N)CCC#N)CC[C@]3(C)[C@H](CC[C@@H]4[C@@]5(C)CCC(=O)C(C)(C)[C@@H]5CC[C@]43C)[C@@H]12` in this test? no (0)

// return assay outcome for `C=CCn1c(SCC(=O)c2ccc(OC)cc2)nnc1-c1ccc(OC)cc1` no (0)

I'd appreciate the recorded outcome for `O=c1c2ccccc2nc(COc2ccccc2)n1/N=C/C=C/c1ccccc1` from this test. no (0)

// param item: `COc1cc2oc(-c3cccc(NC(=O)c4cc(NC(=O)[C@H](C)NC(=O)OC(C)(C)C)ccc4C)c3)cc(=O)c2c(OC)c1OC` ; yields the recorded call no (0)

Recorded test call requested for `N#Cc1c(NC(=O)c2ccccc2C(F)(F)F)sc2c1CCC(=O)C2` yes (1)

Dear colleague, could you share the recorded outcome for `C/C(=N\NC(=S)Nc1ccc(Br)cc1)c1cc2ccccc2oc1=O` when you have a moment? yes (1)

Assay outcome for `Oc1ccc(CSc2nnc(-c3ccc(Br)cc3)o2)c2cccnc12` : what was it? no (0)

Which outcome did this test record for the compound `O=C1c2c(O)cc(O)cc2O[C@@H](c2ccc(O)cc2)[C@@H]1c1c(O)cc(O)c2c(=O)cc(-c3ccc(O)c(O)c3)oc12` ? no (0)

Could you please tell me the result logged for `COc1cc(-c2noc(C[C@@H](NC(=O)OCc3ccccc3)C(C)C)n2)cc(OC)c1OC` in this assay? no (0)

Hey, what did the test say about `COc1ccc(-c2nc3cc(Cl)c(Cl)cc3n2CC(=O)N=Nc2c(O)[nH]c3ccc(Cl)cc23)cc1` ? no (0)

Can you look up the reported call for `O=C(Nc1cccc(Cl)c1)Nc1nc2ccc([N+](=O)[O-])cc2s1` for me? yes (1)

Entry `CC(C)N=C(N/C(N)=N/c1nc2ccccc2s1)NC(C)C` : call = ? no (0)

Call for entry `CCOC(=O)c1c(NC(=O)c2ccc(C(C)(C)C)cc2)sc2cc(OCCN3CCCCC3)ccc12` : no (0)

Query: recorded result category for `Cc1cc(=O)n2nc(-c3c[nH]c4ccccc34)sc2n1` in this test no (0)

Which outcome was entered for the compound CCC(C)[C@H]1OC(=O)[C@H](C(C)C)N(C)C(=O)[C@@H](C(C)C)OC(=O)[C@H](C(C)C)N(C)C(=O)[C@@H](C(C)CC)OC(=O)[C@H](C(C)C)N(C)C1=O (some centres not stated) in this test? yes (1)

# fetch the recorded call for `O=S(=O)(Nc1ccc2c(c1)OC(F)(F)O2)c1ccc(-c2cnc(C3CC3)o2)cc1` here no (0)

Which outcome was entered for the compound `O=C1NC(=O)c2c1c1c3ccccc3ccc1c1[nH]c3ccccc3c21` in this test? no (0)
